List of TGI values.
Tested on: SF-539 CNS
procedure.text: NCI tumour cell line growth inhibition, 48 h

O=c1oc2c(cc1-c1ccccc1)C(O)Oc1ccccc1-2 (stereo unspecified) | 98 µM
COC(=O)/C=C1/OC(c2ccc(C)cc2C)=CC1=O | 33 µM

Enquiry: Record request: TGI value, item CC(=O)OCC1OC(n2c(=S)n(-c3ccccc3)c(=S)c3ccccc32)C(OC(C)=O)C(OC(C)=O)C1OC(C)=O (stereo unspecified)
Return: > 100 µM

Enquiry: Given the molecule CN(N=O)C(=O)Nc1ccc(C(=O)O)cc1 , what is its reported TGI?
Return: > 100 µM

Enquiry: Recorded TGI of Cn1c(-c2cccs2)cc(-c2ccsc2)c1-c1cccs1 , please.
Return: > 100 µM

Enquiry: Look up TGI: CC(C)(C)Cc1cc(O)ccc1O
Return: > 100 µM

Enquiry: For CCNC1=C(NC(=O)c2ccc(OC)cc2)C(=O)c2ccccc2C1=O , what is its reported TGI?
Return: > 100 µM

Enquiry: So what does the record say about TGI for COc1cc(/C=C2\NC(=S)C3Cc4c(OC)c(C)c(OC)c(OC)c4C2N3C)c(OC)c(C)c1OC (stereo unspecified) ?
Return: > 100 µM

* * *

System: SF-295 CNS
procedure.text: NCI tumour cell line growth inhibition, 48 h; in the data active = GI50 below about 0.43 µM; inactive = the rest
Choose the fitting class; nothing outside t = active, f = inactive is accepted.

Record excerpt, results attached:
CC(C)c1ccc(/C=N/N=C(N)N)cc1 | f
c1ccc2c(-c3cnn4cc(-c5ccc(N6CCNCC6)cc5)cnc34)ccnc2c1 | f
CC(=O)OC1CC2(O)C(CCC3(C)C(c4ccc(=O)oc4)CCC32O)C2(C)CCC(OC3OC(CO)C(O)C(O)C3O)C=C12 (stereo not drawn) | t
COC(=O)c1ccc(NC(N)=NCC(C)(C)COc2ccc(C(F)(F)F)cc2)nc1 | f
CCOC(=O)Nc1ccc(C(=O)/C=C/c2ccccc2)cc1 | f

Enquiry: Please indicate how the test categorized Cc1ccc(NC(=O)N2CCCCC2)cc1[N+](=O)[O-] .
Return: f

Enquiry: Which outcome was entered for the compound N=C1N=C(N)S/C1=C\c1ccc2ncccc2c1 in this test?
Return: f

Enquiry: Which result was noted for this compound in the test: CCCC(CCC)Oc1ccc(CCCC2=C(O)c3ccccc3C(=O)C2=O)cc1
Return: f

Enquiry: # lookup: test call for N#CSCC1CC(O)(c2ccccc2)CC(c2ccc(Cl)cc2)O1 (stereo not drawn)
Return: f

* * *

Tested on: DU-145 prostate
procedure.text: NCI tumour cell line growth inhibition, 48 h
Measured GI50, listed per entry for reference.

Worked examples, 3 molecules total:
COc1ccc(C2CC(c3cccc(OC)c3)=NN2C(=O)c2cc(OC)c(OC)c(OC)c2)cc1 (configuration not stated) | 2.66 µM
OCC#CCCCCOCC#Cc1ccccc1C#CCOCCCCC#CCO | 17.6 µM
COc1cc(/C=C2\CCCC3=C2N=C2SC(C)=CN2C3c2cc(OC)c(OC)c(OC)c2)cc(OC)c1OC (configuration not stated) | 2.76 µM

Enquiry: Identify the measured GI50 of C=C(CN(C)Cc1ccccc1)c1ccc(C(=O)Nc2ccccc2N)cc1 for DU-145 prostate.
Return: 1.64 µM

Enquiry: Fill in the recorded GI50 for this molecule, with DU-145 prostate as test system: O=C(O)c1cc2cc(O)ccc2[nH]1
Return: > 100 µM

Enquiry: Query GI50 on DU-145 prostate for O=C(Nc1cc(C(F)(F)F)cc(C(F)(F)F)c1)Nc1ccc(OCc2nnc(-c3ccc(Cl)cc3)o2)c(F)c1
Return: 3.58 µM

Enquiry: Lab note: need GI50 with DU-145 prostate for entry CC(=O)N1N=C(c2ccc(Nc3nc(Nc4ccc(F)cc4)nc(Nc4ccc(Cl)cc4)n3)cc2)CC1c1ccc(N(C)C)cc1 (configuration not stated) , please look it up.
Return: 10.2 µM

* * *

Item-by-item account of TGI
System: MCF7 breast
procedure.text: NCI tumour cell line growth inhibition, 48 h
Please respond with the number in µM and leave the unit unwritten.

CC(=O)Oc1ccccc1C(=O)NCCC[Se]C#N | 11.7
CC(C)=CC[C@H]1C[C@@]2(CC=C(C)C)C(=O)/C(=C(/O)c3ccccc3)C(=O)[C@](CC=C(C)C)(C2=O)C1(C)C | 21.5
Nc1ncc(N)c(NCC2(CO)CC(CCc3ccccc3)C2)n1 (stereo not given) | 15.9

Kindly review the next compound as well.
Enquiry: What does the record list as TGI for COC(=O)c1ccc(NC(N)=NCC(C)(C)COc2ccc(C(F)(F)F)cc2)nc1 ?
Return: 3.28

* * *

System: NCI/ADR-RES ovarian
procedure.text: NCI tumour cell line growth inhibition, 48 h
quantity: GI50

Example entries and their recorded answers appear below.
COc1cc2c(c(OC)c1OC)C(=O)c1c-2n(CCCN=[N+]=[N-])c(=O)c2cc([N+](=O)[O-])ccc12 | 53 µM
CNC(C)[C@H]1CCC2C3CCC4C[C@@H](N(C)C(=O)c5ccccc5)CC[C@]4(C)C3CC[C@@]21C (stereo not given in full) | 2.57 µM
CSC(=NC#N)S/C=C/C(=O)c1cccc2ccccc12 | 40.8 µM

Enquiry: Please state recorded GI50 (tested on NCI/ADR-RES ovarian) of CC1=C/C(O)CC(=O)Cc2nc(co2)C(=O)N2CCC=C2C(=O)OC(C(C)C)C(C)/C=C\C(=O)NC/C=C\1 (stereo not given)
Return: > 100 µM

Enquiry: GI50 of COc1cc(O)c2c(=O)c(OC)c(-c3ccc(OC)c(OC)c3)oc2c1.[Zn+2] on NCI/ADR-RES ovarian?
Return: 14.9 µM

* * *

System: NCI-H23 lung
procedure.text: NCI tumour cell line growth inhibition, 48 h
quantity: TGI

Enquiry: Given the entry COC(=O)C1Cc2c([nH]c3ccccc23)-c2[nH]c3ccccc3c2CC(NC(C)=O)C(=O)NCC(=O)NCC(=O)N1 (centres undefined) , report its measured TGI.
Return: > 100 µM

Enquiry: Looking for the measured TGI of CC(=O)c1c2c(cc3c1CC1(C3)Cc3cc4c(c(C(C)=O)c3C1)CCCC4)CCCC2 , can you help?
Return: > 100 µM

Enquiry: Reported TGI, compound O=C(/C=C/c1ccc(O)cc1)c1cc(-c2cc(CCC(=O)c3ccc(O)cc3O)ccc2O)c(O)cc1O : ____
Return: > 50 µM

Enquiry: Using the record for COc1cc(/C=C2\C(=O)N(c3ccc(NC(C)=O)cc3)C(c3ccccc3)S2(=O)=O)cc(OC)c1OC (centres undefined) , report its TGI.
Return: > 100 µM

Enquiry: I am curious: what TGI value has been reported for Cc1cccc(C)c1NC(=O)CCCC(=O)C(C#N)c1ccc(Cl)cc1 (centres undefined) ?
Return: > 100 µM

Enquiry: What TGI value was documented for this compound, CCOC(=O)CON=c1c2ccccc2ccc2ccccc12 ?
Return: > 100 µM

* * *

Tested on: OVCAR-4 ovarian
procedure.text: NCI tumour cell line growth inhibition, 48 h
Threshold rule: TGI greater than or equal to 70 µM is criterion met; below that, criterion not met.

C=C(C[C@@H](O)[C@H](C)NC(=O)OCc1ccccc1)C(=O)OC(C)(C)C | criterion met
CC(=O)Oc1cc(/C=C/c2ccc(O)cc2)cc(OC(C)=O)c1 | criterion met
O=[N+]([O-])c1ccc2nc3ccscc-3c2c1 | criterion not met

Enquiry: Reported TGI at or above 70 µM? NC(=S)N/N=C/c1ccc(OC(=O)COc2ccccc2)cn1
Return: criterion met

Enquiry: Given the entry O=[N+]([O-])c1cc(Cl)ccc1S(=O)(=O)c1ccc(Cl)cc1[N+](=O)[O-] , answer whether its TGI meets or surpasses 70 µM.
Return: criterion not met

* * *

// reported TGI for each item listed
Tested on: EKVX NSCLC
procedure.text: NCI tumour cell line growth inhibition, 48 h

Solved entries (count: 4):
CCCC(=O)O[C@]1(C)CC[C@@H]2[C@H]3[C@@H]1[C@@H]1C/C(C)=C\CC[C@](C)(OC(=O)[C@@H]2C)[C@H]3O1 | > 100 µM
O=c1[nH]cc(COCC(O)CO)c(=O)[nH]1 (stereo not given) | > 100 µM
COC(=O)C1=C(C(=O)OC)C(OO)(c2ccccc2)OC1=O (stereo not given) | > 100 µM
O=[N+]([O-])c1cc2ccc1OCc1cccc(n1)COc1ccc(cc1[N+](=O)[O-])C=NCCCCCCCCN=C2 | > 100 µM

Next:
Enquiry: Requested field: TGI. Item: O=C1c2ccccc2C(=O)c2sc(Nc3ccc(Cl)cc3)nc21
Return: 17.9 µM

* * *

Test system: 786-0 renal
Bench note: report the call from active, inactive

Below are worked cases with known answers.
CC(=O)OC1CC2(O)C(CCC3(C)C(c4ccc(=O)oc4)CCC32O)C2(C)CCC(OC3OC(CO)C(O)C(O)C3O)C=C12 (centres undefined) | active
Clc1ccc(N/N=C(\c2ccccc2)c2ccccn2)nc1 | active
C[CH2][Ge]([CH2]C)([CH2]C)[O]C(=O)C([O][Ge]([CH2]C)([CH2]C)[CH2]C)c1ccccc1 (centres undefined) | inactive

Turning now to a further molecule:
Enquiry: Called result for Cc1nc2ccccc2c(/C=C/c2ccccc2)c1C(=O)/C=C/c1ccc(Cl)cc1
Return: inactive
